test: Solubility of SOMCL-9112 API and solid dispersions in water and buffers (37° C., shaking); assay type: physicochemical; details: fassgf or other biorelevant
Measurement Label: solubility

Form: compound = CC1CN(C(=O)c2cc(Cc3n[nH]c(=O)c4ccccc34)ccc2F)Cc2nnc(C(F)(F)F)n21 (stereo not shown) ; solubility = ~10 µg/mL

====

experiment: in vitro; conditions: human, Caco-2
Measurement Label: Papp A→B at 2 μM (×10⁻⁶ cm/s)
API: value field is a number in ×10⁻⁶ cm/s; no unit string.

Form: compound = CC1CN(C(=O)c2cc(Cc3n[nH]c(=O)c4ccccc34)ccc2F)Cc2nnc(C(F)(F)F)n21 (stereo not shown) ; Papp A→B at 2 μM = 0.72
